# Measured On: T1, Recombinant Human FGFR2 alpha (IIIc) Fc Chimera Protein, CF (R&D systems, 712-FR-050) (human, UniProt P21802 22-377)
# T1 construct: bought; not shown: Fc part of the chimera
# Assay Summary: ELISA on plate-bound FGFR2-Fc
Bridge positions count the residues as written; N and C are the ends. Ends that are not written are not given here. COCH2 = acetyl group that carries the bridge
Quantity Kind: ELISA luminescence signal at 10 nmol/L peptide, relative to SEQ ID NO: 47 (=1)

See these solved cases before continuing.
YCEENYLDPEQYQYFLYFK(COCH2)Y (thioether 2-19 (inferred)) [cyclic peptide SEQ ID NO: 278] ... ≥ 0.7 ratio
YCEENYLDPEQYQYFTYFK(COCH2)Y (thioether 2-19 (inferred)) [cyclic peptide SEQ ID NO: 286] ... ≥ 0.7 ratio

Look up ELISA luminescence signal at 10 nmol/L peptide, relative to SEQ ID NO: 47 (=1): YCDWVEVANARQLAYYTLYRK(COCH2)K (thioether 2-21) [cyclic peptide SEQ ID NO: 415]
0.1 to 0.5 ratio

# input binder: YCEENYLDPEQYQYFIYFK(COCH2)F (thioether 2-19 (inferred)) [cyclic peptide SEQ ID NO: 312] ; wanted: its ELISA luminescence signal at 10 nmol/L peptide, relative to SEQ ID NO: 47 (=1)
≥ 0.7 ratio

Can you look up the measured ELISA luminescence signal at 10 nmol/L peptide, relative to SEQ ID NO: 47 (=1) of HCNANFVYQQQYLYLLQYK(COCH2)L (thioether 2-19 (inferred)) [cyclic peptide SEQ ID NO: 43] for me?
0.5 to 0.7 ratio

Return reported ELISA luminescence signal at 10 nmol/L peptide, relative to SEQ ID NO: 47 (=1); argument: YCEENFLDPEQYQYFIYFK(COCH2)Y (thioether 2-19 (inferred)) [cyclic peptide SEQ ID NO: 187]
≥ 0.7 ratio
